MEASUREMENT_TARGET: Cytochrome P450 2C9 (Homo sapiens)
Sequence (P11712 whole entry): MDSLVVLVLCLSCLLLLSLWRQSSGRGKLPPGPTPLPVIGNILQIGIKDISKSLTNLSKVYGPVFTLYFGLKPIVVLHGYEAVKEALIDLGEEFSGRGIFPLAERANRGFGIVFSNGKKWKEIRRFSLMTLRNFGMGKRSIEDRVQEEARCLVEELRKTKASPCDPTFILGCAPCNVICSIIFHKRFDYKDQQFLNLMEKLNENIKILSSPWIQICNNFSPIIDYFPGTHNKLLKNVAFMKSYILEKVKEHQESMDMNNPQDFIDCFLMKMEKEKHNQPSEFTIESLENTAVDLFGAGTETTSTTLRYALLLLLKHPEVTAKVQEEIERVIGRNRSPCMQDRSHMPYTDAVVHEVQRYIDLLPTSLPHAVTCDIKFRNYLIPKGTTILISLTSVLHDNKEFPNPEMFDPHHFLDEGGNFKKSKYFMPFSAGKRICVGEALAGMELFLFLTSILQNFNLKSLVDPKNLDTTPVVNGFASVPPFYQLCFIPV
ASSAY_NOTES: Inhibition of CYP2C9 in human liver microsomes incubated for 10 mins in presence of NADPH by LC/MS/MS analysis
Assay type: ADME
Please provide measured pIC50 for the entries that follow.
When answering, recall that pIC50 equals minus log10 of the concentration in mol/L, and write that number alone.

Please give measured pIC50 of the following entry: Clc1ccc(C2(Cn3cncn3)COC(c3cc4ccc(Cl)cc4s3)=N2)cc1 (configuration not stated) 5.82

Please give measured pIC50 of the following entry: Fc1ccc(C2(Cn3cncn3)COC(c3cc4ccc(Cl)cc4s3)=N2)cc1 (configuration not stated) 5.54

* * *

Please provide measured CLint scaled at 100 µM for the entries that follow.
ASSAY_NOTES: Metabolic stability in human liver microsomes assessed as liver intrinsic clearance at 100 uM pre-incubated for 10 mins followed by NADPH-regenerating system and measured upto 60 mins by LC-MS/MS analysis
Assay type: ADME, Microsome
EXPERIMENTAL_CONDITIONS: time <=70 min, read-out: CLH
Your answer should be a number followed by the unit of measure.

Please give measured CLint scaled at 100 µM of the following entry: Fc1ccc(C2(Cn3cncn3)COC(c3cc4ccc(Cl)cc4s3)=N2)cc1 (configuration not stated) 15.5 mL/min/kg

Please give measured CLint scaled at 100 µM of the following entry: Clc1ccc(C2(Cn3cncn3)COC(c3cc4ccc(Cl)cc4s3)=N2)cc1 (configuration not stated) 18 mL/min/kg

* * *

ASSAY_NOTES: AUC (0 to infinity) in Sprague-Dawley rat at 2 mg/kg, iv measured upto 24 hrs by LC/MS/MS analysis
Type: ADME, organism-based
Set-up: route intravenous, dose 2 mg/kg, time <=24
EXPERIMENTAL_CONDITIONS: in vivo
MEASURED_PARAMETER: AUC(0-inf) (ng·h/mL)
The reply should be a number in ng·h/mL, with the unit left off.

Please give measured AUC(0-inf) of the following entry: Fc1ccc(C2(Cn3cncn3)COC(c3cc4ccc(Cl)cc4s3)=N2)cc1 (stereo unspecified) 505

* * *

Please provide measured remaining at 1 h for the entries that follow.
ASSAY_NOTES: Metabolic stability in human liver microsomes assessed as parent compound remaining incubated upto 60 mins by LC-MS/MS analysis
Type: ADME, Microsome
EXPERIMENTAL_CONDITIONS: read-out: Stability
The reply should be a number in %, with the unit left off.

Please give measured remaining at 1 h of the following entry: Clc1ccc(C2(Cn3cncn3)COC(c3cc4ccc(Cl)cc4s3)=N2)cc1 (configuration not stated) 77.3

Please give measured remaining at 1 h of the following entry: Fc1ccc(C2(Cn3cncn3)COC(c3cc4ccc(Cl)cc4s3)=N2)cc1 (configuration not stated) 82.6

* * *

ASSAY_NOTES: Initial plasma concentration in Sprague-Dawley rat at 2 mg/kg, iv measured upto 24 hrs by LC/MS/MS analysis
Format: ADME, organism-based
MEASURED_PARAMETER: C0 at 24 h (ng/mL)
The reply should be a number in ng/mL, with the unit left off.

Please give measured C0 at 24 h of the following entry: Fc1ccc(C2(Cn3cncn3)COC(c3cc4ccc(Cl)cc4s3)=N2)cc1 (stereo unspecified) 482

* * *

ASSAY_NOTES: Volume of distribution at steady state in Sprague-Dawley rat at 2 mg/kg, iv measured upto 24 hrs by LC/MS/MS analysis
Format: ADME, organism-based
EXPERIMENTAL_CONDITIONS: in vivo, read-out: Vdss
MEASURED_PARAMETER: Vd (L/kg)
The reply should be a number in L/kg, with the unit left off.

Please give measured Vd of the following entry: Fc1ccc(C2(Cn3cncn3)COC(c3cc4ccc(Cl)cc4s3)=N2)cc1 (stereo unspecified) 10.3
